Organism: Rattus norvegicus
Assay: Open TG-GATES - Regimen: Daily Repeat
Type: toxicity, organism-based, Sprague-Dawley
Design: regimen Daily Repeat, gender Male, age 6 weeks
Settings: in vivo, po, 100 mg/kg, […], tissue Plasma, route gavage, dose level Low, time 14 day
PROPERTY_NAME: K (meq/L)
Write it as a number; the unit meq/L goes unstated.

MOLECULE	PROPERTY_NAME	OBSERVED_VALUE
CCOc1ccc(NC(=O)CC(C)O)cc1 (centres undefined)	K	3.8
COc1ccc2[nH]c([S+]([O-])Cc3ncc(C)c(OC)c3C)nc2c1 (centres undefined)	K	3.7
COC1=CC(=O)C[C@@H](C)[C@]12Oc1c(Cl)c(OC)cc(OC)c1C2=O	K	4.1

Now examine the next entry.
The molecule CCOC(=O)CCC(=O)O[C@H]1[C@H](O[C@@H]2[C@@H](C)[C@H](O[C@H]3C[C@@](C)(OC)[C@@H](O)[C@H](C)O3)[C@@H](C)C(=O)O[C@H](CC)[C@@](C)(O)[C@H](O)[C@@H](C)C(=O)[C@H](C)C[C@@]2(C)O)O[C@H](C)C[C@@H]1N(C)C [ERYTHROMYCIN ETHYLSUCCINATE] showed K equal to 4.4
